B1: TOR1AIP2 (parent)
chain: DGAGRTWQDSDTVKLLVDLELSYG

- Variants of: B1
- Method Notes: protein stability index of a GFP-peptide fusion (GPS, HEK-293T) (PSI 1-6); higher = more stable;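 also: lentivirally expressed fusions sorted by FACS into six bins by GFP to DsRed ratio, PSI derived from sequencing read proportions per bin multiplied by bin number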
- Assay Conditions: c terminus: a fixed tail appended
Measured protein stability index accompanies every entry in the list below.
Could you respond with only the numeric value?

Reference set (5 entries):
- Variant Description: "V17E"
  protein stability index: 4.81
- Variant Description: "L19N"
  protein stability index: 3.75
- Variant Description: "G2S"
  protein stability index: 1.84
- Variant Description: "Y23G"
  protein stability index: 2.6
- Variant Description: "G4I"
  protein stability index: 2.38

What measured protein stability index goes with G4E ?
2.58

Need protein stability index of E20Q , thanks.
2.23

Recorded protein stability index for L16C , please?
1.99

Looking for the measured protein stability index of R5N , can you help?
2.74

The reported measurements were obtained from the supplement of paper PMC10567573.
